Values from ChEMBL document CHEMBL1201862

- Test system: NCI-H522
- Experiment Notes: NCI tumour cell line growth inhibition, 48 h
Activity calls are given as the source filed them. No stated cut-off is given here; in the data, active = GI50 up to about 1.1 µM and inactive = higher.
Valid outcomes are listed here; reply with one: Yes = active, No = inactive

Check the results log: what was the call for COC(=O)[C@H](Cc1ccccc1)NP(=O)(O)OCC1OC(n2cc(C)c(=O)[nH]c2=O)CC1N=[N+]=[N-] (stereo not given in full) ?
No

Recorded call for S=C(NN=C1NCCCN1)Nc1ccccc1 ?
No

Please share the test call associated with C=CCNC(=O)N(CCC)CCCC(NC(C)=O)C(=O)NCc1ccccc1 (stereo not given) .
No

Could you check what this test reported for CC1(C)OC2C(CO)OC(n3ccc(=O)[nH]c3=O)C2O1 (stereo not given) ?
No

Tell me the recorded outcome of this test for C1CN(C23OC4(N5CCOCC5)C5C6CC(C7C6C4C72)C53)CCO1 (stereo not given) .
No

Per the assay record, what outcome was assigned to Cc1c2ccnc(O)c2cc2c(=O)c3cnccc3[nH]c12 ?
No

Outcome? Oc1ccc(-c2nc3cc(C(F)(F)F)ccc3n2CC2CCCN3CCCCC23)cc1 (stereo not given)
No

Call for entry N/N=C(\C(=O)Nc1ccc([N+](=O)[O-])cc1)C(C1=Nc2cc([N+](=O)[O-])ccc2NC1)[N+](=O)[O-] (stereo not given) :
No

Tell me the recorded outcome of this test for COc1ccc(/C(C)=N/NC(N)=S)c(OC)c1 .
No

Check the results log: what was the call for O=C(OCc1ccccc1)c1ccc(NCc2cc(O)ccc2O)cc1 ?
Yes

Which outcome was entered for the compound CSc1sc(C)cc1-c1nsc(=O)o1 in this test?
No

Record lookup: outcome of this test for COc1cc(C=O)c(-c2cc3c(cc2C=O)OCO3)c(OC)c1OC ?
No

Per the assay record, what outcome was assigned to CCOC(=O)c1c(NCc2ccccc2)n(-c2ccccc2)c(=S)n(-c2ccccc2)c1=O ?
No

Hi, do you know how COc1cc2nc(Cl)nc(NS(=O)(=O)c3cc4ccccc4s3)c2cc1OC came out in this test?
No

Outcome? O=C(N/N=C/c1ccccc1)c1cccc2nc3ccccc3nc12
No
